Recorded values, source ChEMBL document CHEMBL3352472.

PROTOCOL: Volume of distribution in rat at 0.5 mg/kg, iv by discrete dosing method
Assay type: ADME, organism-based
Parameters: dose 0.5 mg/kg, route intravenous
TEST CONDITIONS: in vivo
READOUT KIND: Vd

[
  {
    "STRUCTURE STRING": "CC1(C)CN(c2ccccc2NC(=O)Nc2ccc(OC(F)(F)F)cc2)c2c(O)cc(F)c(-c3ccc(Cl)cc3)c21",
    "READOUT KIND": "Vd",
    "RECORDED MEASUREMENT": "0.4 L/kg"
  }
]

* * *

PROTOCOL: Metabolic stability in rat liver microsomes assessed as compound remaining at 0.5 uM after 10 mins
Type: ADME
TEST CONDITIONS: read-out: Stability

[
  {
    "MOLECULE": "CC(C)CN1CCCC1c1ccc(NC(=O)Nc2ccccc2N2CC(C)(C)c3c(-c4ccc(F)cc4)ccc(O)c32)cc1 (stereo unspecified)",
    "remaining at 10 min, 0.5 µM": "39%"
  },
  {
    "MOLECULE": "CC1(C)CN(c2ccccc2NC(=O)Nc2ccc(OC(F)(F)F)cc2)c2c(O)ccc(-c3cc(F)cc(F)c3)c21",
    "remaining at 10 min, 0.5 µM": "59%"
  },
  {
    "MOLECULE": "CC1(C)CN(c2ccccc2NC(=O)Nc2nc3ccc(Cl)nc3s2)c2c(O)ccc(-c3ccc(F)cc3)c21",
    "remaining at 10 min, 0.5 µM": "74%"
  },
  {
    "MOLECULE": "Cc1nc(NC(=O)Nc2ccccc2N2CC(C)(C)c3c(-c4ccc(F)cc4)ccc(O)c32)cs1",
    "remaining at 10 min, 0.5 µM": "55%"
  },
  {
    "MOLECULE": "CC1(C)CN(c2ccccc2NC(=O)Nc2ccc(OC(F)(F)F)cc2)c2c(O)cc(F)c(-c3ccc(F)cc3)c21",
    "remaining at 10 min, 0.5 µM": "84%"
  },
  {
    "MOLECULE": "CC1(C)CN(c2ccccc2NC(=O)Nc2ccc(OC(F)(F)F)cc2)c2c(O)cc(F)c(-c3ccc(Cl)s3)c21",
    "remaining at 10 min, 0.5 µM": "79%"
  },
  {
    "MOLECULE": "CC1(CC(F)(F)F)CN(c2ccccc2NC(=O)Nc2ccc(OC(F)(F)F)cc2)c2c(O)ccc(Cl)c21 (stereo unspecified)",
    "remaining at 10 min, 0.5 µM": "58%"
  },
  {
    "MOLECULE": "CC(C)(C)CN1CCC2(CC1)CN(c1ccccc1NC(=O)Nc1ccc(OC(F)(F)F)cc1)c1c(O)cc(F)c(-c3ccc(F)cc3)c12",
    "remaining at 10 min, 0.5 µM": "80%"
  },
  {
    "MOLECULE": "CC(C)(C)CN1CCCC1c1ccc(NC(=O)Nc2ccccc2N2CC(C)(C)c3c(-c4ccc(F)cc4)ccc(O)c32)cc1 (stereo unspecified)",
    "remaining at 10 min, 0.5 µM": "34%"
  },
  {
    "MOLECULE": "CC1(C)CN(c2ccccc2NC(=O)Nc2ccc(OC(F)(F)F)cc2)c2c(O)cc(F)c(-c3cnc(Cl)cn3)c21",
    "remaining at 10 min, 0.5 µM": "83%"
  },
  {
    "MOLECULE": "CC1(C)CN(c2ccccc2NC(=O)Nc2ccc(OC(F)(F)F)cc2)c2c(O)ccc(-c3ccc(C(F)(F)F)cc3)c21",
    "remaining at 10 min, 0.5 µM": "94%"
  },
  {
    "MOLECULE": "CC1(C)CN(c2ccccc2NC(=O)Nc2ccc(OC(F)(F)F)cc2)c2c(O)ccc(-c3ccc(Cl)cc3)c21",
    "remaining at 10 min, 0.5 µM": "83%"
  },
  {
    "MOLECULE": "CC1(C)CN(c2ccccc2NC(=O)Nc2ccc(OC(F)(F)F)cc2)c2c(O)c(F)cc(-c3ccc(F)cc3)c21",
    "remaining at 10 min, 0.5 µM": "71%"
  },
  {
    "MOLECULE": "CC1(C)CN(c2ccccc2NC(=O)Nc2ccc(OC(F)(F)F)cc2)c2c(O)cc(F)c(-c3ccc(Cl)cc3)c21",
    "remaining at 10 min, 0.5 µM": "90%"
  },
  {
    "MOLECULE": "CC1(C)CN(c2ccccc2NC(=O)Nc2ccc(OC(F)(F)F)cc2)c2c(O)ccc(-c3ccc(F)cc3F)c21",
    "remaining at 10 min, 0.5 µM": "72%"
  },
  {
    "MOLECULE": "CC1(C)CN(c2ccccc2NC(=O)Nc2ccc(OC(F)(F)F)cc2)c2c(O)cc(F)c(-c3ncc(F)cn3)c21",
    "remaining at 10 min, 0.5 µM": "61%"
  }
]
